growth inhibition values by entry
methodNotes: NCI Yeast Anticancer Drug Screen. Data for the sgs1 strain (AID 173);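 further: 0% = growth of vehicle-only control cultures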
experimentalParameters: S. cerevisiae sgs1 mutant, at 3.7 µM, hits give high values
The panel holds about 79,000 compounds, 15% with a hit somewhere; the sample as a whole holds those more often.
Express it in %; write the number only.

Past entries and their recorded results:
compound	growth inhibition (%)
COc1cc([C@@H]2c3cc4c(cc3[C@H](OC3OC5COC(C(C)C)OC5C(O)C3O)C3COC(=O)[C@@H]32)OCO4)cc(OC)c1O (stereo partly specified)	-9
CCN(CC)CCNc1ccc2ncn3c4cc(OC)c(OC)c(=O)c4c(O)c1c23	5
CC(C)(C)CC(C)(C)c1cc(O)c(O)c(CN2CCCCC2)c1	1
C=C(Cl)COC(=O)Nc1cccc(Cl)c1	3
CC1=CC(=C(c2ccc(N)cc2)c2ccc(N)cc2)C=CC1=N	18
CCOC(=N)c1ccc(O)c(OC)c1	-5
CCC(C)NC1=NCC(C)S1 (stereo unspecified)	-21
CCc1nc2ccc(NCCN(C)C)c3c(=O)c4ccccc4n1c23	15
CCC1(OC(=O)CN2CCN(CCO)CC2)C(=O)OCc2c1cc1n(c2=O)Cc2cc3ccccc3nc2-1 (stereo unspecified)	21
O=C(C[n+]1ccc2ccccc2c1)c1ccc2ccccc2c1	-34

// growth inhibition lookup, key: CC(C)(C)C1=CC(=CC=C2C=CN(CCCCCCCCCCCO)C=C2)C=C(C(C)(C)C)C1=O 84

// repeat for Cc1cc(C(C)(C)C)c(OCCCN2CCOCC2)c(C(C)(C)C)c1 and report 0

// repeat for Cc1cc2cc3cc(C)c(N)cc3nc2cc1N and report -21

// repeat for Oc1ccc(-c2nc(-c3ccc(F)cc3)c(-c3ccc4ccccc4n3)[nH]2)cc1 and report -38

// repeat for COc1ccc(/C=C2\NC(=S)N(/C=C3\C(=O)Oc4ccccc4C3=O)C2=O)cc1 and report 2

// repeat for CCCCCCCCCCCC(O)S(=O)(=O)O (stereo unspecified) and report -2

// repeat for Cc1c(-c2ccccn2)ccc2ccccc12 and report -1

// repeat for CC(C)(C)N=C(NO)c1ccccc1 and report 7

// repeat for COC1=C(N)C(=O)c2nc(-c3nc(C(=O)O)c(C)c(-c4ccc(OC)c(OC)c4O)c3N)ccc2C1=O and report 97

// repeat for COc1oc(C(=O)NC2CCCCC2)c(-c2ccc(Cl)cc2)c1S(=O)(=O)c1ccccc1 and report -1

* * *

methodNotes: NCI Yeast Anticancer Drug Screen. Data for the rad18 strain (AID 177)
experimentalParameters: S. cerevisiae rad18 mutant growth inhibition; at 11.0 µM
This is part of a sample that, as a whole, favours compounds with a hit. Of some 79,000 tested, about 15% had one in any assay. Active and inactive are the calls of the source. Cut-off read from the data, not from the text of the source: active = growth inhibition above about 70%; inactive = the rest.
Just give me one of these, please: active, inactive

Examples from the recorded data:
molecule	answerLabel
COc1ccc(/C=C/C(=O)c2ccccc2)cc1OC	inactive
Cc1ccc(NC(c2ccccc2)c2ccc3cccnc3c2O)cc1 (stereo not drawn)	inactive
CCCCOC(=O)Nc1ccc(C)c(NC(=O)OCCCC)c1	inactive
CCCCNC1CCC2(SCCS2)c2[nH]c3ccccc3c21 (stereo not drawn)	inactive
COC1=C(N)C(=O)c2nc(-c3nc(C(=O)O)c(C)c(-c4ccc(OC)c(OC)c4O)c3N)ccc2C1=O	active
CN(C)C=NC1CCC(C(C)(C)C)CC1 (stereo not drawn)	inactive
COC1CCC(O)C(/C=C/[N+](=O)[O-])C1 (stereo not drawn)	active
Cc1nc2c(Br)cc(Br)cc2c(=O)n1-c1ccccc1NC1OCC(O)C(O)C1O (stereo not drawn)	inactive

What did the test return for O=C(NO)Nc1cc(Cl)cc(Cl)c1 ? active

* * *

methodNotes: NCI Yeast Anticancer Drug Screen. Data for the mlh1 rad18 strain (AID 175)
experimentalParameters: S. cerevisiae mlh1 rad18 strain growth inhibition; at 50.0 µM (retest, dose inferred, filed as 5.0)
This is part of a sample that, as a whole, favours compounds with a hit. Of some 79,000 tested, about 15% had one in any assay. Active and inactive are the calls of the source. Cut-off read from the data, not from the text of the source: active = growth inhibition above about 70%; inactive = the rest.
Just give me one of these, please: 1.0 for active, 0.0 for inactive

What did the test return for CCOC(=O)C(C(=O)OCC)=P(c1ccccc1)(c1ccccc1)c1ccccc1 ? 0.0

* * *

methodNotes: NCI Yeast Anticancer Drug Screen. Data for the rad50EPP+ strain (AID 151);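 further: 0% = growth of vehicle-treated control cultures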
experimentalParameters: S. cerevisiae rad50 mutant strain, at 33.0 µM
The panel holds about 79,000 compounds, 15% with a hit somewhere; the sample as a whole holds those more often. Activity calls are given as the source filed them. No stated cut-off is given here; in the data, active means growth inhibition above about 70%; inactive means the rest.
Just give me one of these, please: yes (1) for active, no (0) for inactive

Examples from the recorded data:
compound	answerLabel
O=C(/C=C\c1cccc(C(F)(F)F)c1)c1ccccc1	no (0)
C[C](C)(C)[Ge]([O][Ge]([c]1ccccc1)[c]1ccccc1)([O][Ge]([c]1ccccc1)[c]1ccccc1)[C](C)(C)C	no (0)
N/C(=N/N=C/c1cc(Br)cc(Br)c1O)NO	no (0)
O=C(c1ccc([N+](=O)[O-])cc1)C1N=NCC1c1ccccc1 (stereo not given)	no (0)
Cc1ccc2c(c1)C1(SC(C)C(=O)N1c1ccc(Cl)cc1)C(=O)N2 (stereo not given)	no (0)
C=C1C(=O)OC2CC1C(OC(C)=O)C/C(C)=C/CC/C(C)=C\CCC2(C)O (stereo not given)	no (0)

Next, consider the following compound.
What did the test return for OC1(c2ccccc2)CCCc2ccc(Cl)cc21 (stereo not given) ? no (0)

* * *

growth inhibition values by entry
methodNotes: NCI Yeast Anticancer Drug Screen. Data for the CLN2oe strain (AID 163);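 further: 0% = growth of vehicle-only control cultures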
experimentalParameters: S. cerevisiae CLN2oe strain, at 1.2 µM, hits give high values
About 79,000 compounds went through this panel and 15% of them were active in at least one assay; those are over-represented in the sample as a whole.
Express it in %; write the number only.

Past entries and their recorded results:
smilesStructure	growth inhibition / %
CC(C)CN(CC(C)C)C(=O)c1ccc(Cl)c(Cl)c1	2
Cc1cc2c(cc1C)[n+]([O-])c(-c1nc3ccccc3s1)c(N)[n+]2[O-]	-1
CCCC(=O)Oc1ccc(/C=N/NC(N)=S)nc1	-5
O=C1c2ccccc2C(=O)N1CCCC(=O)n1cc(F)c(=O)[nH]c1=O	2
COc1cccc(/C=N/C(/N=C/c2cccc(OC)c2O)c2cccc(OC)c2O)c1O	-2

Kindly consider the entry below.
// growth inhibition lookup, key: c1ccc2cc(NCNc3ccc4ccccc4c3)ccc2c1 -3

* * *

methodNotes: NCI Yeast Anticancer Drug Screen. Data for the rad14 strain (AID 159);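 further: 0% = growth of vehicle-treated control cultures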
experimentalParameters: S. cerevisiae rad14 strain growth inhibition; at 3.7 µM; hits give high values
The panel holds about 79,000 compounds, 15% with a hit somewhere; the sample as a whole holds those more often.
measure: growth inhibition (%)
Express it in %; write the number only.

compound	observed
O=C(/C=C(/c1ccccc1)N1CCCCC1)c1ccccc1	6
CCCCCCCCCCCC1N=C(N)NC(CCCO)=C1C(=O)OC (stereo unspecified)	99
COC(=O)C1(C)CCc2c(ccc3ccccc23)C1=O (stereo unspecified)	4
O=C1N=C2SC=C(NC(=S)Nc3ccccc3)N2NC12c1ccccc1-c1ccccc12	3

Kindly consider the entry below.
// growth inhibition lookup, key: O=C(C[n+]1ccc2ccccc2c1)c1ccc2ccccc2c1 -44

* * *

growth inhibition values by entry
methodNotes: NCI Yeast Anticancer Drug Screen. Data for the sgs1 strain (AID 173);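 further: 0% = growth of vehicle-only control cultures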
experimentalParameters: S. cerevisiae sgs1 mutant, at 33.0 µM, hits give high values
About 79,000 compounds went through this panel and 15% of them were active in at least one assay; those are over-represented in the sample as a whole.
Express it in %; write the number only.

Past entries and their recorded results:
compound	observed
CC(=O)SC(C[N+](=O)[O-])c1ccccc1 (stereo unspecified)	100
c1ccc2c(c1)sc1c3cnccc3ccc21	9

// growth inhibition lookup, key: COc1ccc(C(=O)C(CN(C)C)CN(C)C)cc1 32

// repeat for N#CNC(N)=Nc1cc2ccccc2c2ccccc12 and report 96

// repeat for CCCCC(CC)C(=O)[O][Sn]([CH2]CCC)([CH2]CCC)[O]C(=O)C(CC)CCCC (stereo unspecified) and report 89

// repeat for O=c1ssc(=Nc2ccccc2)n1-c1ccccc1 and report 34

// repeat for O=C(/C=C/c1cc(Cl)cc(Cl)c1O)c1cccc(O)c1 and report 98

// repeat for CC(=O)Nc1ccc2c(c1)Cc1cc(N=C3C=CC(=O)O3)ccc1-2 and report 99

* * *

growth inhibition values by entry
methodNotes: NCI Yeast Anticancer Drug Screen. Data for the mec2-1 strain (AID 157)
experimentalParameters: S. cerevisiae mec2-1 strain, at 5.0 µM (retest, dose inferred, filed as 0.5), hits give high values
Compounds without any hit were thinned out: in the full panel of roughly 79,000, 15% have a hit. Active and inactive are the calls of the source. Cut-off read from the data, not from the text of the source: active = growth inhibition above about 70%; inactive = the rest.

Past entries and their recorded results:
compound	growth inhibition
Nc1ccn(C2OC(COP(=O)(O)O)C(O)C2O)c(=O)n1 (stereo not given)	3% (inactive)
CCOC(=O)C(C(=O)OCC)=P(c1ccccc1)(c1ccccc1)c1ccccc1	1% (inactive)
CN(C)/C=C/c1nnc([N+](=O)[O-])s1	-48% (inactive)

Kindly consider the entry below.
// growth inhibition lookup, key: COC(=O)CC1(O)C(/C=C/c2ccccc2)C(C(=O)OC)C(=O)C(C(=O)OC)C1C(=O)OC (stereo not given) 1% (inactive)
